Answer each item with its documented Mean relative activity.
system: K562 CRISPRi cells; test: Constant region variant library pooled growth screen, K562; assay type: cell-based, human; conditions: sgRNA constant region variants; activity relative to the original, un-modified constant region cr995
Could you respond with only the numeric value?

[ask] # return recorded Mean relative activity for entry cr593 (nucleic acid, listed as DNA, chemistry not fully specified) guide: GTTTAAGAGCTAAGCTGGAAACAGCATAGCAAGTTTAAATAAGGCTAGTCCGTTATCACCTTGAAAAAGGGGCACCGAGTCGGTGCT
[reply] 1.035

[ask] # return recorded Mean relative activity for entry cr820 (nucleic acid, listed as DNA, chemistry not fully specified) guide: GTTTAAGAGCTAAGCTGGAAACAGCATAGCAAGTTTAAATAAGGCTAGTCCGTTATCAACTGGAGACAGTGGCACCGAGTCGGTGCT
[reply] 1.072

[ask] # return recorded Mean relative activity for entry cr567 (nucleic acid, listed as DNA, chemistry not fully specified) guide: GTTTAAGAGCTAAGCTGGAAACAGCATAGCAAGTTTAAATAAGGCTAGTCCGTTATCAACTTGCGAAAGTGGCACCGAGTCGGTGCT
[reply] 1.06

[ask] # return recorded Mean relative activity for entry cr964 (nucleic acid, listed as DNA, chemistry not fully specified) guide: GTTTAAGAGCTAAGCTGGAAACAGCATAGCTAGTTTAAATAAGGCTAGTCCGTTATCAACTTGAGAAAGTGGCACCGAGTCGGTGCT
[reply] 1.033
